measured.endpoint: Melting Point

-- ask May I ask what Melting Point has been recorded for O=Cc1c2ccccc2c(C=O)c2ccccc12 ?
-- reply 244 to 245 °C

-- ask Next up: NNc1nnc(Cc2ccncc2)c2ccccc12
-- reply 261 to 264 °C

-- ask And the next one, O=c1[nH][nH]c2ccccc12 ?
-- reply 245 to 247 °C
